# study target: P-glycoprotein (P-gp) (Homo sapiens (Human), UniProt P08183)
# Sequence (P08183 whole entry): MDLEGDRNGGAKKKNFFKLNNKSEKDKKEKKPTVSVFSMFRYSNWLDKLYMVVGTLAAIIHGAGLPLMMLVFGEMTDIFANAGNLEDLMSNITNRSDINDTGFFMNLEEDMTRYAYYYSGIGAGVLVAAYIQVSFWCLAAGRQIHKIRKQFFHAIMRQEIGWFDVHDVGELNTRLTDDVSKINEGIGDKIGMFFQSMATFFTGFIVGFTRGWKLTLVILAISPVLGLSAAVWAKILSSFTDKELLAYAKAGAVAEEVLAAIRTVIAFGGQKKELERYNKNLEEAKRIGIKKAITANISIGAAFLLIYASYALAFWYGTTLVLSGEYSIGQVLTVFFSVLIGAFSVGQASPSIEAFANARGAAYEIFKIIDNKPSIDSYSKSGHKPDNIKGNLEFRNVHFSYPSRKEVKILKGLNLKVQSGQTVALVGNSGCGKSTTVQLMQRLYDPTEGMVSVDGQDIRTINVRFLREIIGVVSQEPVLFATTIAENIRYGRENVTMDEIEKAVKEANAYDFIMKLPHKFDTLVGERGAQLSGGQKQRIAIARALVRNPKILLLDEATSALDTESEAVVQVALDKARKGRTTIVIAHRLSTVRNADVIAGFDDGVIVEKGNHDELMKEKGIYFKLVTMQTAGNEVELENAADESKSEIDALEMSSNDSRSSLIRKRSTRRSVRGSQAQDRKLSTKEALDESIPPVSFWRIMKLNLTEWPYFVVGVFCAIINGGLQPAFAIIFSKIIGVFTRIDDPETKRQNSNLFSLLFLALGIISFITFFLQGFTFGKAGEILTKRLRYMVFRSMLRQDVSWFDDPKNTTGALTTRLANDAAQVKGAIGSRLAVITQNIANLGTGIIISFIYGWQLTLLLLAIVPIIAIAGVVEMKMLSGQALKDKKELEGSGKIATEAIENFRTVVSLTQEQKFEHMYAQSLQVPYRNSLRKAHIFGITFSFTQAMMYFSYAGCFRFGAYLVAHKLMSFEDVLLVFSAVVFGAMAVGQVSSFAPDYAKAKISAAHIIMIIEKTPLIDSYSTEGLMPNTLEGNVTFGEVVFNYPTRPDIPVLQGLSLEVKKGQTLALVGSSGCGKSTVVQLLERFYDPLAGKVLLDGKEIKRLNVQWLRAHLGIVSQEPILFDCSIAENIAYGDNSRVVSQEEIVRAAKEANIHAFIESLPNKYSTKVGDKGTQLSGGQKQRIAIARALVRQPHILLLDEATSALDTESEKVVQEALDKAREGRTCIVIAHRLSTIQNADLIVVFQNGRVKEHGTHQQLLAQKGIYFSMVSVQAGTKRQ
# method description: P-gp transport, experimental BA/AB ratio, human
# Type: in vitro ADME
# experimental context: LLC-PK1, 1 μM substrate concentration
measurement type: efflux ratio at 1 μM

>>> print(df.to_string())
                                   compound  measured_value
0  CN(C)c1nc(C(=O)N[C@@H](c2ccc(OC(F)F)c(F)c2)C2(C)CC2)cc(=O)[nH]1             0.6
1  CC(C)[C@@H](NC(=O)c1cc(=O)[nH]c(N)n1)c1ccc(OC(F)(F)F)c(F)c1            11.6
2  CC(C)[C@@H](NC(=O)c1cc(=O)[nH]c(N(C)C)n1)c1ccc(SC(F)(F)F)c(F)c1             1.1
3  CC(C)[C@@H](NC(=O)c1cc(=O)[nH]c(N(C)C)n1)c1ccc(C(C)(F)F)c(F)c1             1.1

* * *

# study target: P-glycoprotein (P-gp, rat Mdr1a) (Rattus norvegicus, UniProt Q6PSM0)
# Sequence (Q6PSM0 1-1272): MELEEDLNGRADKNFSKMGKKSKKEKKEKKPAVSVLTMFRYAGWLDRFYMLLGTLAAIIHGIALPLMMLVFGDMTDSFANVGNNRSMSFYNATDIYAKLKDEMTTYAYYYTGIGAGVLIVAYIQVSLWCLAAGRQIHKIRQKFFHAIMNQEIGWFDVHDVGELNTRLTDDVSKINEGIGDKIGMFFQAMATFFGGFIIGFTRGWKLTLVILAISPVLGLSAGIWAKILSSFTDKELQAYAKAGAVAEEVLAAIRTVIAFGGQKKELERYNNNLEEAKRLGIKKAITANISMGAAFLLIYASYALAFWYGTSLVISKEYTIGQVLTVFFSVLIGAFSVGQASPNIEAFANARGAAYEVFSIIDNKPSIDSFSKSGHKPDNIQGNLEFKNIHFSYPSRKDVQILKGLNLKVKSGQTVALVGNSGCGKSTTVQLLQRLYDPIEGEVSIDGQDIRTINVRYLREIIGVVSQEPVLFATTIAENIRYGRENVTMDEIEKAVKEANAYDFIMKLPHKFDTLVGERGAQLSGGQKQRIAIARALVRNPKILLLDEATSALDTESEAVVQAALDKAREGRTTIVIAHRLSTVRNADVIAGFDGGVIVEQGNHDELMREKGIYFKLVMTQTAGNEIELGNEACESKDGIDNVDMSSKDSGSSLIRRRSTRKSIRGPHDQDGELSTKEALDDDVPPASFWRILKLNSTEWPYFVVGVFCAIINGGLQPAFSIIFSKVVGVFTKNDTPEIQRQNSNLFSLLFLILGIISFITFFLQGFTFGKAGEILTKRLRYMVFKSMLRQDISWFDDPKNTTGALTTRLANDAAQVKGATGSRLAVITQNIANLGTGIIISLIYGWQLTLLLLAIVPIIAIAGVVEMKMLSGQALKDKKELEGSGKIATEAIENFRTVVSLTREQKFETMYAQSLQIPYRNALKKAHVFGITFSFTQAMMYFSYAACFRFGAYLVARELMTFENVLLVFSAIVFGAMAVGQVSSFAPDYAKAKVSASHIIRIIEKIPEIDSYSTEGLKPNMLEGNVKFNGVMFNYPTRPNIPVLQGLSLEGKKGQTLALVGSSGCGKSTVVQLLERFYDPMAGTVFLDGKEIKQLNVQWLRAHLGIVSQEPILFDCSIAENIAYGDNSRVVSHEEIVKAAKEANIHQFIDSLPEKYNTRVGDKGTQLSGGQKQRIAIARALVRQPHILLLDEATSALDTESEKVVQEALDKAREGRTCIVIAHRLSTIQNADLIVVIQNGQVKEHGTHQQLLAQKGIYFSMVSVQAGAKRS
# method description: P-gp transport, experimental BA/AB ratio, rat LLC-Mdr1a
# Format: in vitro ADME
# experimental context: LLC-PK1; rat LLC-Mdrla; 1 μM substrate concentration
measurement type: efflux ratio at 1 μM

>>> df
                                    molecule  measured_value
 0  CN(C)c1nc(C(=O)N[C@@H](c2ccc(OC(F)F)c(F)c2)C2(C)CC2)cc(=O)[nH]1 [Example 55]             3.4
 1  CN(C)c1nc(C(=O)N[C@@H](c2ccc(OC(F)(F)F)c(F)c2)C2CC2)cc(=O)[nH]1 [Example 110]             3.5
 2  CC(C)[C@@H](NC(=O)c1cc(=O)[nH]c(N2CCCC2)n1)c1ccc(SC(F)(F)F)cc1 [Example 147]             5.9
 3  CC(C)[C@@H](NC(=O)c1cc(=O)[nH]c(N2CC[C@@H](F)C2)n1)c1ccc(OC(F)(F)F)c(F)c1 [Example 163]            15.8
 4  CC[C@@H](NC(=O)c1cc(=O)[nH]c(N(C)C)n1)c1ccc(SC(F)(F)F)cc1 [Example 88]             1.8
 5  CC(C)(C)[C@@H](NC(=O)c1cc(=O)[nH]c(N)n1)c1ccc(C(F)(F)F)cc1 [Example 157]              34
 6  O=C(N[C@@H](c1ccc(C2CC2)cc1)C1CC1)c1cc(=O)[nH]c(N2CCCC2)n1 [Example 113]             3.9
 7  CC(C)[C@@H](NC(=O)c1cc(=O)[nH]c(N2CC[C@H](F)C2)n1)c1ccc(C(F)(F)F)c(F)c1 [Example 168]            21.2
 8  C[C@@H](NC(=O)c1cc(=O)[nH]c(N(C)C)n1)c1ccc(C2CC2)c(F)c1 [Example 40]             2.4
 9  CO[C@@H]1CCN(c2nc(C(=O)N[C@@H](c3ccc(C(F)(F)F)cc3)C(C)(C)C)cc(=O)[nH]2)C1 [Example 171]            24.4
10  O=C(N[C@@H](c1ccc(SC(F)(F)F)cc1)C1CC1)c1cc(=O)[nH]c(N2CCCC2)n1 [Example 27]               7
11  CN(C)c1nc(C(=O)N[C@@H](c2ccc(C(F)F)c(F)c2)C2(C)CC2)cc(=O)[nH]1 [Example 59]             4.2
12  CN(C)c1nc(C(=O)NC2(c3ccc(C(F)(F)F)c(F)c3)CC2)cc(=O)[nH]1 [Example 94]             2.6
13  O=C(N[C@@H](c1ccc(C(F)(F)F)cc1)C1CC1)c1cc(=O)[nH]c(N2CCCC2)n1 [Example 26]             4.5
14  COc1ccc(OCCCOc2nc(C(=O)NC(C)c3ccc(C(F)(F)F)cc3)cc(=O)[nH]2)cc1 (stereo not drawn) [Example 194]             8.4

* * *

# study target: UniProt:B3VTJ2
# Sequence (B3VTJ2 1-941): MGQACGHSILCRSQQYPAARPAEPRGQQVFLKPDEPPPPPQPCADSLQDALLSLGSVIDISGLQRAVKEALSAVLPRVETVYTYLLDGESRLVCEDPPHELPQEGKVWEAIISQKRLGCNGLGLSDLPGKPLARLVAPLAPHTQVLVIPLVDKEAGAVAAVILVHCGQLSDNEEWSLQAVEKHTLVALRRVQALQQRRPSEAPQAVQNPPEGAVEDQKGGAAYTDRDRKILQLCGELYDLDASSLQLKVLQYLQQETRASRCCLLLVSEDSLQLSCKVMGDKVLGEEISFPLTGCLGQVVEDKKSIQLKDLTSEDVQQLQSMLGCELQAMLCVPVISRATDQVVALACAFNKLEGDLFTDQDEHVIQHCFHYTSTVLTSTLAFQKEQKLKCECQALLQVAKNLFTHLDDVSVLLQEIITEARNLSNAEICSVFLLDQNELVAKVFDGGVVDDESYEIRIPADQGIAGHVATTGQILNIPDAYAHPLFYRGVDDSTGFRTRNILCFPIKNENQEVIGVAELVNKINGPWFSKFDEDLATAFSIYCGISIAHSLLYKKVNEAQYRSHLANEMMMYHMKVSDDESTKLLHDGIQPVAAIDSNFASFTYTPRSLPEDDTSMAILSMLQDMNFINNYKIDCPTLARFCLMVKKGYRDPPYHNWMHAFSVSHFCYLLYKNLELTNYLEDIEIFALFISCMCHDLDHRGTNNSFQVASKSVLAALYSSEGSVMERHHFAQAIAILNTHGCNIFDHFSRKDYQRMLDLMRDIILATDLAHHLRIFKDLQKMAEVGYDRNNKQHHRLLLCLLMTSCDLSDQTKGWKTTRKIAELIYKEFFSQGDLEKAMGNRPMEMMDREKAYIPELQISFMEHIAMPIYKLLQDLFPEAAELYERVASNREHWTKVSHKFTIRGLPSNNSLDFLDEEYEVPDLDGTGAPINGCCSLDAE
# method description: PDE2 fluorescence polarization (IMAP FP) inhibition assay, rhesus PDE2A3
# Type: biochemical, rhesus macaque
# experimental context: Lab B; read-out: Rhesus PDE2 Ki (nM) - Lab B
Catalogue of Ki readings, one per entry.
measurement type: Ki

>>> print(df.to_string())
                                   compound  measurement_type  measured_value
0  C[C@H](NC(=O)c1cc(=O)[nH]c(N(C)C)n1)c1ccc(S(F)(F)(F)(F)F)cc1F                Ki          2.5 nM
1  CN(C)c1nc(C(=O)N[C@@H](c2ccc(C(F)F)cc2)C(C)(C)C)cc(=O)[nH]1                Ki         0.42 nM
2  CC(C)[C@@H](NC(=O)c1cc(=O)[nH]c(N(C)C)n1)c1ccc(OC(F)(F)F)c(Cl)c1                Ki          2.1 nM
3  O=C(N[C@@H](c1ccc(S(F)(F)(F)(F)F)cc1)C1CC1)c1cc(=O)[nH]c(N2CCCC2)n1                Ki          1.1 nM

* * *

# study target: human PDE2A1 (Homo sapiens (Human), UniProt O00408)
# Sequence (O00408 other isoform, or with tags, fused parts or gaps): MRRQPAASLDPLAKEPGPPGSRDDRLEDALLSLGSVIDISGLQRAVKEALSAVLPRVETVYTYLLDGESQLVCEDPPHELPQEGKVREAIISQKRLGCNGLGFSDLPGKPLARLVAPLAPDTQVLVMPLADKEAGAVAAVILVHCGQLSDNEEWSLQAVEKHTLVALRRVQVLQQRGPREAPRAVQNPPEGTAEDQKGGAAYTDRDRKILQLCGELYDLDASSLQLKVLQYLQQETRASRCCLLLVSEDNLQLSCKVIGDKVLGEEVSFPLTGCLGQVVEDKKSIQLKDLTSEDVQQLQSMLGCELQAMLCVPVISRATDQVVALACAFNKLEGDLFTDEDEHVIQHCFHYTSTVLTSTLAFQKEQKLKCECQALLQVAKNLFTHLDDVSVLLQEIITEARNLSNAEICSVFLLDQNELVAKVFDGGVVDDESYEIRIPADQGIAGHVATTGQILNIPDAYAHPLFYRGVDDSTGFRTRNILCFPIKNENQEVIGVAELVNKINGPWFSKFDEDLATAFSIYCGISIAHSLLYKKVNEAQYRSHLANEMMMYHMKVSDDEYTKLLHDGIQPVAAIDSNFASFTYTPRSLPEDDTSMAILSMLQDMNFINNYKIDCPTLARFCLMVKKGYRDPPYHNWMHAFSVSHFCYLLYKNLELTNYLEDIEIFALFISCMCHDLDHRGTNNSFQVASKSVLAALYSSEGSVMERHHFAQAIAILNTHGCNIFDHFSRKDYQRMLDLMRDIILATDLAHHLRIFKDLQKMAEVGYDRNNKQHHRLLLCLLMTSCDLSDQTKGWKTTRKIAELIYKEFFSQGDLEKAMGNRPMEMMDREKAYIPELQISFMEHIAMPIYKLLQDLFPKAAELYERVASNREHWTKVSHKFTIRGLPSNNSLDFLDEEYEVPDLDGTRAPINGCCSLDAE
# method description: PDE2 IMAP FP inhibition assay, human PDE2A1 (selectivity panel format)
# Type: biochemical
# experimental context: Lab B; read-out: Human PDE2 Ki (nM) - Lab B
measurement type: Ki (nM)

In [3]: df
Out[3]:
                                   compound  unit_name  measured_value
0  CN(C)c1nc(C(=O)N[C@@H](c2ccc(C3CC3)cc2)C2CC2)cc(=O)[nH]1         nM            0.76
1  CN(C)c1nc(C(=O)N[C@@H](c2ccc(C(F)F)cc2)C(C)(C)C)cc(=O)[nH]1         nM            0.29
2  CCC(C)(NC(=O)c1cc(=O)[nH]c(N(C)C)n1)c1ccc(C(F)(F)F)cc1F (single isomer, unassigned) [Example 130]         nM            0.89
3  CN(C)c1nc(C(=O)N[C@H](c2ccc(C(F)(F)F)cc2)C(C)(C)C)cc(=O)[nH]1         nM              17
4  CN(C)c1nc(C(=O)NC2(c3ccc(C(F)(F)F)cc3)CCCC2)cc(=O)[nH]1         nM             5.4
5  C[C@@H](NC(=O)c1cc(=O)[nH]c(N(C)C)n1)c1ccc(OC(F)(F)F)cc1F         nM             2.4
6  CN(C)c1nc(C(=O)N[C@@H](c2ccc(S(F)(F)(F)(F)F)cc2)C2CC2)cc(=O)[nH]1         nM               1

* * *

# study target: human PDE2A1 (Homo sapiens (Human))
# method description: PDE2 IMAP FP inhibition assay, human PDE2A1 (selectivity panel format)
# Assay type: biochemical
# experimental context: Lab A; read-out: Human PDE2 Ki (nM) - Lab A
The label Met is reserved for Ki strictly under 2 nM; Not met covers values equal to or above it.

>>> print(df.to_string())
                                    compound                         study_target    label
 0  CC(C)[C@@H](NC(=O)c1cc(=O)[nH]c(N2CC[C@@H](O)C2)n1)c1ccc(OC(F)(F)F)c(F)c1  human PDE2A1 (Homo sapiens (Human))      Met
 1  C[C@@H](NC(=O)c1cc(=O)[nH]c(N2CCCC2)n1)c1ccc(C(F)(F)F)cc1  human PDE2A1 (Homo sapiens (Human))      Met
 2  CNc1nc(C(=O)N[C@@H](c2ccc(SC(F)(F)F)c(F)c2)C(C)C)cc(=O)[nH]1  human PDE2A1 (Homo sapiens (Human))      Met
 3  C[C@@H](NC(=O)c1cc(=O)[nH]c(N2CCCC2)n1)c1ccc(SC(F)(F)F)cc1  human PDE2A1 (Homo sapiens (Human))      Met
 4  CN(C)c1nc(C(=O)NC(C)(C)c2ccc(C(F)(F)F)c(F)c2)cc(=O)[nH]1  human PDE2A1 (Homo sapiens (Human))  Not met
 5  C[C@@H](NC(=O)c1cc(=O)[nH]c(N)n1)c1ccc(SC(F)(F)F)cc1  human PDE2A1 (Homo sapiens (Human))  Not met
 6  CNc1nc(C(=O)N[C@H](C)c2ccc(SC(F)(F)F)cc2)cc(=O)[nH]1  human PDE2A1 (Homo sapiens (Human))  Not met
 7  COc1ccc(OCCCOc2nc(C(=O)NC(C)c3ccc(C(F)(F)F)cc3)cc(=O)[nH]2)cc1 (stereo not shown)  human PDE2A1 (Homo sapiens (Human))  Not met
 8  COc1nc(C(=O)N[C@H](C)c2ccc(C(F)(F)F)cc2)cc(=O)[nH]1  human PDE2A1 (Homo sapiens (Human))  Not met
 9  CC(C)[C@@H](NC(=O)c1cc(=O)[nH]c(N)n1)c1ccc(OC(F)(F)F)c(F)c1  human PDE2A1 (Homo sapiens (Human))  Not met
10  C[C@@H](NC(=O)c1cc(=O)[nH]c(N(C)C)n1)c1ccc(OC(F)(F)F)c(F)c1  human PDE2A1 (Homo sapiens (Human))      Met
11  CC(C)[C@@H](NC(=O)c1cc(=O)[nH]c(N)n1)c1ccc(SC(F)(F)F)c(F)c1  human PDE2A1 (Homo sapiens (Human))  Not met
12  COCCCOc1nc(C(=O)NC(C)c2ccc(C(F)(F)F)cc2)cc(=O)[nH]1 (stereo not shown)  human PDE2A1 (Homo sapiens (Human))  Not met
13  CC(C)[C@@H](NC(=O)c1cc(=O)[nH]c(N(C)C)n1)c1ccc(OC(F)(F)F)cc1  human PDE2A1 (Homo sapiens (Human))      Met
